From: patent EP0013144A1

List of damage to plants, Rg values.
System: Ryegrass
METHOD_DESCRIPTION: Post-emergence herbicidal activity (Example 32)
Format: in vivo
MEASUREMENT_CONDITIONS: 5 kg/ha, 3 weeks after spraying
Protocol: […] The post-emergent herbicidal activity of the compounds of the invention formulated as described in Example 30 was assessed by the following procedure. The seeds of the test species were sown in rows 2 cm deep in soil contained in seed boxes. […] After the plants had grown to a height of about 10 to 12.5 cm one box of each of the monocotyledonous plants and the dicotyledonous plants was removed from the glasshouse and sprayed with the required quantity of a composition of the invention. […]
PROPERTY_LABEL: damage to plants, Rg

> print(dat)
                                    compound  target.entity        property.label                       test.result
 1  COC(=O)C(C)Oc1ccc(N(C)c2ccc(Cl)cc2[N+](=O)[O-])cc1 (stereo not shown)       Ryegrass  damage to plants, Rg      3+ (3+ represents 100% kill)
 2  CC(Oc1ccc(Nc2ccc(C(F)(F)F)cc2[N+](=O)[O-])cc1)C(=O)O (stereo not shown)       Ryegrass  damage to plants, Rg      3+ (3+ represents 100% kill)
 3  COC(=O)C(C)Oc1ccc(Nc2ccc(Br)cc2[N+](=O)[O-])cc1 (stereo not shown)       Ryegrass  damage to plants, Rg      3+ (3+ represents 100% kill)
 4  COC(=O)C(C)Oc1ccc(Nc2ccc(C)cc2[N+](=O)[O-])cc1 (stereo not shown)       Ryegrass  damage to plants, Rg   3 (3 represents 75 to 99% kill)
 5  COC(=O)C(C)Oc1ccc(Nc2ccc(Cl)cc2[N+](=O)[O-])cc1 (stereo not shown)       Ryegrass  damage to plants, Rg      3+ (3+ represents 100% kill)
 6  C#CCN(c1ccc(OC(C)C(=O)OC)cc1)c1ccc(C(F)(F)F)cc1[N+](=O)[O-] (stereo not shown)       Ryegrass  damage to plants, Rg      3+ (3+ represents 100% kill)
 7  CC(Oc1ccc(Nc2ccc(Cl)cc2[N+](=O)[O-])cc1)C(=O)OC1CCCCC1 (stereo not shown)       Ryegrass  damage to plants, Rg   3 (3 represents 75 to 99% kill)
 8  COC(=O)C(C)Oc1ccc(N(C)c2ccc(Br)cc2[N+](=O)[O-])cc1 (stereo not shown)       Ryegrass  damage to plants, Rg      3+ (3+ represents 100% kill)
 9  COC(=O)C(C)Oc1ccc(N(C)c2ccc([N+](=O)[O-])cc2[N+](=O)[O-])cc1 (stereo not shown)       Ryegrass  damage to plants, Rg      3+ (3+ represents 100% kill)
10  COC(=O)C(C)Oc1ccc(Nc2ccc([N+](=O)[O-])cc2[N+](=O)[O-])cc1 (stereo not shown)       Ryegrass  damage to plants, Rg      3+ (3+ represents 100% kill)
11  CC(Oc1ccc(N(C)c2ccc(C(F)(F)F)cc2[N+](=O)[O-])cc1)C(=O)OC1CCCCC1 (stereo not shown)       Ryegrass  damage to plants, Rg      3+ (3+ represents 100% kill)
12  COC(=O)C(C)Oc1ccc(Nc2ccc(C(F)(F)F)cc2[N+](=O)[O-])cc1 (stereo not shown)       Ryegrass  damage to plants, Rg      3+ (3+ represents 100% kill)
13  COC(=O)C(C)Oc1ccc(N(C)c2ccc(Cl)cc2Cl)cc1 (stereo not shown)       Ryegrass  damage to plants, Rg      3+ (3+ represents 100% kill)
14  COC(=O)C(C)Oc1ccc(N(C)c2ccc(Cl)cc2)cc1 (stereo not shown)       Ryegrass  damage to plants, Rg   3 (3 represents 75 to 99% kill)
15  COC(=O)C(C)Oc1ccc(Nc2ccc(Cl)cc2Cl)cc1 (stereo not shown)       Ryegrass  damage to plants, Rg      3+ (3+ represents 100% kill)
16  COC(=O)C(C)Oc1ccc(N(C)c2ccc(C(F)(F)F)cc2)cc1 (stereo not shown)       Ryegrass  damage to plants, Rg  0 (0 represents 0 to 25% damage)

###

Measured damage to plants, Ot, listed per entry for reference.
System: Wild Oats
METHOD_DESCRIPTION: Pre-emergence herbicidal activity (Example 31)
Format: in vivo
MEASUREMENT_CONDITIONS: 1 kg/ha, after three weeks
PROPERTY_LABEL: damage to plants, Ot

> print(dat)
                                   compound        property.label                            test.result
1  COC(=O)C(C)Oc1ccc(Nc2ccc(C(F)(F)F)cc2[N+](=O)[O-])cc1 (stereo not shown)  damage to plants, Ot           3+ (3+ represents 100% kill)
2  CCCCSC(=O)C(C)Oc1ccc(Nc2ccc(C(F)(F)F)cc2[N+](=O)[O-])cc1 (stereo not shown)  damage to plants, Ot                                      1
3  COC(=O)C(C)Oc1ccc(N(C)c2ccc(Cl)cc2Cl)cc1 (stereo not shown)  damage to plants, Ot  0 (0 represents from 0 to 25% damage)
4  COC(=O)C(C)Oc1ccc(N(C)c2ccc(Cl)cc2)cc1 (stereo not shown)  damage to plants, Ot  0 (0 represents from 0 to 25% damage)
5  COC(=O)C(C)Oc1ccc(N(C)c2ccc(Br)cc2[N+](=O)[O-])cc1 (stereo not shown)  damage to plants, Ot                                      1
6  COC(=O)C(C)Oc1ccc(Nc2ccc(Cl)cc2[N+](=O)[O-])cc1 (stereo not shown)  damage to plants, Ot                                      2
7  COC(=O)C(C)Oc1ccc(Nc2ccc(Br)cc2[N+](=O)[O-])cc1 (stereo not shown)  damage to plants, Ot                                      1

###

Tested on: Mustard
METHOD_DESCRIPTION: Post-emergence herbicidal activity (Example 32)
Type: in vivo
MEASUREMENT_CONDITIONS: 1 kg/ha, 3 weeks after spraying
PROPERTY_LABEL: damage to plants, Ms

> print(dat)
                                    molecule                       test.result
 1  COC(=O)C(C)Oc1ccc(N(C)c2ccc(Cl)cc2)cc1 (stereo not shown)  0 (0 represents 0 to 25% damage)
 2  COC(=O)C(C)Oc1ccc(Nc2ccc(Cl)cc2Cl)cc1 (stereo not shown)                                 1
 3  CC(Oc1ccc(N(C)c2ccc(C(F)(F)F)cc2[N+](=O)[O-])cc1)C(=O)OC1CCCCC1 (stereo not shown)  0 (0 represents 0 to 25% damage)
 4  C#CCN(c1ccc(OC(C)C(=O)OC)cc1)c1ccc(C(F)(F)F)cc1[N+](=O)[O-] (stereo not shown)  0 (0 represents 0 to 25% damage)
 5  COC(=O)C(C)Oc1ccc(Nc2ccc([N+](=O)[O-])cc2[N+](=O)[O-])cc1 (stereo not shown)                                 1
 6  COC(=O)C(C)Oc1ccc(Nc2ccc(C)cc2[N+](=O)[O-])cc1 (stereo not shown)  0 (0 represents 0 to 25% damage)
 7  COC(=O)C(C)Oc1ccc(Nc2ccc(Cl)cc2[N+](=O)[O-])cc1 (stereo not shown)  0 (0 represents 0 to 25% damage)
 8  CC(Oc1ccc(Nc2ccc(Cl)cc2[N+](=O)[O-])cc1)C(=O)OC1CCCCC1 (stereo not shown)  0 (0 represents 0 to 25% damage)
 9  CCCCSC(=O)C(C)Oc1ccc(Nc2ccc(C(F)(F)F)cc2[N+](=O)[O-])cc1 (stereo not shown)  0 (0 represents 0 to 25% damage)
10  COC(=O)C(C)Oc1ccc(N(C)c2ccc(Cl)cc2[N+](=O)[O-])cc1 (stereo not shown)  0 (0 represents 0 to 25% damage)
11  COC(=O)C(C)Oc1ccc(N(C)c2ccc(Cl)cc2Cl)cc1 (stereo not shown)  0 (0 represents 0 to 25% damage)
12  COC(=O)C(C)Oc1ccc(N(C)c2ccc(Br)cc2[N+](=O)[O-])cc1 (stereo not shown)  0 (0 represents 0 to 25% damage)
13  COC(=O)C(C)Oc1ccc(Nc2ccc(Br)cc2[N+](=O)[O-])cc1 (stereo not shown)  0 (0 represents 0 to 25% damage)

###

Below, each entry is listed with its recorded damage to plants, Ot.
Test system: Wild Oats
METHOD_DESCRIPTION: Pre-emergence herbicidal activity (Example 31)
Assay type: in vivo
MEASUREMENT_CONDITIONS: 5 kg/ha, after three weeks
PROPERTY_LABEL: damage to plants, Ot

> print(dat)
                                   compound        property.label                            test.result
1  COC(=O)C(C)Oc1ccc(Nc2ccc(Cl)cc2[N+](=O)[O-])cc1 (centres unmarked) [Compound 28]  damage to plants, Ot           3+ (3+ represents 100% kill)
2  COC(=O)C(C)Oc1ccc(Nc2ccc(Cl)cc2Cl)cc1 (centres unmarked) [Compound 22]  damage to plants, Ot  0 (0 represents from 0 to 25% damage)
3  COC(=O)C(C)Oc1ccc(N(C)c2ccc(Cl)cc2Cl)cc1 (centres unmarked) [Compound 1]  damage to plants, Ot  0 (0 represents from 0 to 25% damage)
4  COC(=O)C(C)Oc1ccc(Nc2ccc(Br)cc2[N+](=O)[O-])cc1 (centres unmarked) [Compound 29]  damage to plants, Ot           3+ (3+ represents 100% kill)
5  COC(=O)C(C)Oc1ccc(N(C)c2ccc(Cl)cc2)cc1 (centres unmarked) [Compound 13]  damage to plants, Ot  0 (0 represents from 0 to 25% damage)
6  COC(=O)C(C)Oc1ccc(Nc2ccc(C(F)(F)F)cc2[N+](=O)[O-])cc1 (centres unmarked) [Compound 21]  damage to plants, Ot           3+ (3+ represents 100% kill)
7  COC(=O)C(C)Oc1ccc(N(C)c2ccc(Br)cc2[N+](=O)[O-])cc1 (centres unmarked) [Compound 30]  damage to plants, Ot        3 (3 represents 75 to 99% kill)
8  COC(=O)C(C)Oc1ccc(Nc2ccc(Br)cc2N)cc1 (centres unmarked) [Compound 32]  damage to plants, Ot  0 (0 represents from 0 to 25% damage)
